System: Human immunodeficiency virus 1
test_name: Antiviral activity against HIV1 isolate 200 harboring reverse transcriptase M41L/L210W/T215Y mutant gene by phenosense assay
Assay type: functional, organism-based
experimental_conditions: Human immunodeficiency virus 1, isolate 200
pEC50: −log10 of the molar value.
pEC50 reference

>  <molecule>
Cc1cn([C@H]2C=C[C@@H](CO)O2)c(=O)[nH]c1=O

>  <pEC50>
5.92

$$$$
>  <molecule>
CCCCCCCCCCCCCCCCOCCCOP(=O)(O)CO[C@H](C)Cn1cnc2c(N)ncnc21

>  <pEC50>
8.22

$$$$
>  <molecule>
Nc1ccn([C@@H]2CS[C@H](CO)O2)c(=O)n1

>  <pEC50>
4.99

$$$$
>  <molecule>
Cc1cn([C@H]2C[C@H](N=[N+]=[N-])[C@@H](CO)O2)c(=O)[nH]c1=O

>  <pEC50>
5.57

$$$$
>  <molecule>
Nc1nc(=O)n([C@@H]2CS[C@H](CO)O2)cc1F

>  <pEC50>
5.38

$$$$
>  <molecule>
Nc1nc(NC2CC2)c2ncn([C@H]3C=C[C@@H](CO)C3)c2n1

>  <pEC50>
5.30

$$$$
>  <molecule>
C[C@H](Cn1cnc2c(N)ncnc21)OCP(=O)(O)O [TENOFOVIR ANHYDROUS]

>  <pEC50>
5.66

$$$$
>  <molecule>
O=c1[nH]cnc2c1ncn2[C@H]1CC[C@@H](CO)O1

>  <pEC50>
5.12

$$$$

====

Tested on: Human immunodeficiency virus 1
test_name: Antiviral activity against HIV1 isolate 162 harboring reverse transcriptase A62V/V75I/F77L/Y115F/F116Y/Q151M/M184V mutant gene by phenosense assay relative to wild type
Format: functional

>  <compound>
O=c1[nH]cnc2c1ncn2[C@H]1CC[C@@H](CO)O1

>  <censoring_qualifier>
=

>  <fold change (FC)>
11

$$$$
>  <compound>
Nc1nc(=O)n([C@@H]2CS[C@H](CO)O2)cc1F

>  <censoring_qualifier>
>

>  <fold change (FC)>
88

$$$$
>  <compound>
Cc1cn([C@H]2C=C[C@@H](CO)O2)c(=O)[nH]c1=O

>  <censoring_qualifier>
=

>  <fold change (FC)>
7.1

$$$$
>  <compound>
CCCCCCCCCCCCCCCCOCCCOP(=O)(O)CO[C@H](C)Cn1cnc2c(N)ncnc21

>  <censoring_qualifier>
=

>  <fold change (FC)>
1.6

$$$$
>  <compound>
Nc1ccn([C@@H]2CS[C@H](CO)O2)c(=O)n1

>  <censoring_qualifier>
>

>  <fold change (FC)>
80

$$$$
>  <compound>
Cc1cn([C@H]2C[C@H](N=[N+]=[N-])[C@@H](CO)O2)c(=O)[nH]c1=O

>  <censoring_qualifier>
=

>  <fold change (FC)>
150

$$$$
>  <compound>
Nc1nc(NC2CC2)c2ncn([C@H]3C=C[C@@H](CO)C3)c2n1

>  <censoring_qualifier>
>

>  <fold change (FC)>
29

$$$$
>  <compound>
C[C@H](Cn1cnc2c(N)ncnc21)OCP(=O)(O)O [TENOFOVIR ANHYDROUS]

>  <censoring_qualifier>
=

>  <fold change (FC)>
1.4

$$$$

====

Test system: Human immunodeficiency virus 1
test_name: Antiviral activity against HIV1 group O isolate BCF01 infected in human PBMC after 48 to 72 hrs by MTS assay
Assay type: functional, organism-based
experimental_conditions: Human immunodeficiency virus 1, isolate BCF01
pEC50: −log10 of the molar value.
endpoint_label: pEC50

>  <compound>
CCCCCCCCCCCCCCCCOCCCOP(=O)(O)CO[C@H](C)Cn1cnc2c(N)ncnc21 [TENOFOVIR EXALIDEX]

>  <endpoint_label>
pEC50

>  <readout_value>
8.30

$$$$

These measurements were taken from ChEMBL document CHEMBL1629690.
